Exercise: for every item that follows, state its recorded normalised inhibition (eCFP-eYFP dual reporter).
Target: P2rx2 (rat); also: test concentration or dose not given here
Assay: reporter assay of Huesken 2005
Details: siRNA
Oligonucleotides are written 5' to 3', each unit as a sugar letter and its base; * is a phosphorothioate linkage, no mark a phosphodiester; rarer units and linkages stand in square brackets, end groups in braces. Plain capitals give the bases only. d = 2'-deoxy (DNA); r = 2'-OH (RNA)
One number for each entry, in %.

Here's what some known entries look like.
>  <substance>
sense rArArArUrUrUrCrArCrCrArUrCrCrUrCrArUrCdTdT / antisense rGrArUrGrArGrGrArUrGrGrUrGrArArArUrUrUdGdG

>  <numericReadout>
23.6

$$$$
>  <substance>
sense rGrCrUrArCrCrArGrGrArCrArGrCrGrArGrArCdTdT / antisense rGrUrCrUrCrGrCrUrGrUrCrCrUrGrGrUrArGrCdTdT

>  <numericReadout>
60.5

$$$$
>  <substance>
sense rUrGrUrCrUrGrArArUrCrArGrArGrUrGrCrArAdTdT / antisense rUrUrGrCrArCrUrCrUrGrArUrUrCrArGrArCrAdAdG

>  <numericReadout>
80.9

$$$$
>  <substance>
sense rCrArCrCrArCrUrCrGrArArCrUrCrUrCrArUrCdTdT / antisense rGrArUrGrArGrArGrUrUrCrGrArGrUrGrGrUrGdGdT

>  <numericReadout>
64.7

$$$$
>  <substance>
sense rArCrUrArCrCrArCrCrArCrUrCrGrArArCrUrCdTdT / antisense rGrArGrUrUrCrGrArGrUrGrGrUrGrGrUrArGrUdGdC

>  <numericReadout>
43.6

$$$$

Moving on to the next substance.
Ask | Could you please provide reported normalised inhibition (eCFP-eYFP dual reporter) for sense rCrUrGrGrArArCrUrGrUrGrArCrCrUrGrGrArCdTdT / antisense rGrUrCrCrArGrGrUrCrArCrArGrUrUrCrCrArGdTdT ? Thanks!
Reply | 70.3
